# experiment-description: Pharmacokinetics after oral administration to control, G-ARF and C-ARF rats
# Assay type: in vivo, Sprague–Dawley rats
# applied-conditions: Sprague-Dawley, rat, plasma, po, 20 mg/kg, G-ARF rats, read-out: F (absolute oral bioavailability)
value-type: bioavailability (%)
Your answer is read as %, so omit the unit and give the number.

Please supply the value of reported bioavailability for the item C[C@@H]1CCN(C(=O)CC#N)C[C@@H]1N(C)c1ncnc2[nH]ccc12 [tofacitinib, Tofacitinib]
60.7

* * *

# experiment-description: Pharmacokinetics after 1-min intravenous infusion to control, G-ARF and C-ARF rats
# Assay type: in vivo, Sprague–Dawley rats
# applied-conditions: Sprague-Dawley, rat, plasma, iv, 10 mg/kg, C-ARF rats, time zero to infinity
value-type: AUC
Please answer in the form of a number followed by its unit of measurement.

Please supply the value of reported AUC for the item "C[C@@H]1CCN(C(=O)CC#N)C[C@@H]1N(C)c1ncnc2[nH]ccc12"
11600 ng·h/mL
